Data origin, for the record: paper PMC12416549

Biological target: T1, TNFR1 (Homo sapiens, UniProt P19438)
T1 chain: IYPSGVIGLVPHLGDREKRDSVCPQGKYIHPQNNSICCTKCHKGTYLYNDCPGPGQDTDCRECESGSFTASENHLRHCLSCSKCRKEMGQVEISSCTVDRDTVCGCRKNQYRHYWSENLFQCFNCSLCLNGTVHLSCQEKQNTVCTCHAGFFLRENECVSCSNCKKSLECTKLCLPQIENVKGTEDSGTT
Assay: yeast display SC50
test-readout: apparent Kd (screen) (nM)

Sample records with apparent Kd (screen):
- binder: "K48R (designed binder) SMEEEVEKAAKEYEKKKKEAIEKHLEKLKAKDKEAAERFLKELEEAAREYAKDEAKTMSEEEAKRRAKKYKEKVLLSELSEEEQKEIKEAEEKLVRTILKYVEEAAK"
  units-of-measure: "nM"
  apparent Kd (screen): 0.593
- binder: "Y101V (designed binder) SMEEEVEKAAKEYEKKKKEAIEKHLEKLKAKDKEAAERFLKELEEAAKEYAKDEAKTMSEEEAKRRAKKYKEKVLLSELSEEEQKEIKEAEEKLVRTILKVVEEAAK"
  units-of-measure: "nM"
  apparent Kd (screen): 0.446
- binder: "R65V (designed binder) SMEEEVEKAAKEYEKKKKEAIEKHLEKLKAKDKEAAERFLKELEEAAKEYAKDEAKTMSEEEAKVRAKKYKEKVLLSELSEEEQKEIKEAEEKLVRTILKYVEEAAK"
  units-of-measure: "nM"
  apparent Kd (screen): 1.4

[A] A10M (designed binder) SMEEEVEKAMKEYEKKKKEAIEKHLEKLKAKDKEAAERFLKELEEAAKEYAKDEAKTMSEEEAKRRAKKYKEKVLLSELSEEEQKEIKEAEEKLVRTILKYVEEAAK
[B] L40T (designed binder) SMEEEVEKAAKEYEKKKKEAIEKHLEKLKAKDKEAAERFTKELEEAAKEYAKDEAKTMSEEEAKRRAKKYKEKVLLSELSEEEQKEIKEAEEKLVRTILKYVEEAAK
[C] S1K (designed binder) KMEEEVEKAAKEYEKKKKEAIEKHLEKLKAKDKEAAERFLKELEEAAKEYAKDEAKTMSEEEAKRRAKKYKEKVLLSELSEEEQKEIKEAEEKLVRTILKYVEEAAK
[D] K107S (designed binder) SMEEEVEKAAKEYEKKKKEAIEKHLEKLKAKDKEAAERFLKELEEAAKEYAKDEAKTMSEEEAKRRAKKYKEKVLLSELSEEEQKEIKEAEEKLVRTILKYVEEAAS
[ask] List by increasing apparent Kd (screen). Return value: ordered labels per request.
[reply] C, B, D, A

[I] A46E (designed binder) SMEEEVEKAAKEYEKKKKEAIEKHLEKLKAKDKEAAERFLKELEEEAKEYAKDEAKTMSEEEAKRRAKKYKEKVLLSELSEEEQKEIKEAEEKLVRTILKYVEEAAK
[II] E78T (designed binder) SMEEEVEKAAKEYEKKKKEAIEKHLEKLKAKDKEAAERFLKELEEAAKEYAKDEAKTMSEEEAKRRAKKYKEKVLLSTLSEEEQKEIKEAEEKLVRTILKYVEEAAK
[III] K69E (designed binder) SMEEEVEKAAKEYEKKKKEAIEKHLEKLKAKDKEAAERFLKELEEAAKEYAKDEAKTMSEEEAKRRAKEYKEKVLLSELSEEEQKEIKEAEEKLVRTILKYVEEAAK
[ask] Could you please order the items by apparent Kd (screen), going from the lowest number to the highest? # answer = labels listed in requested order
[reply] III, II, I
